System: HL60/VINC
Experiment: Cytostatic activity in vitro, vincristine-induced resistant subline (MDR-1)
Format: cell-based, human
Details: Homo sapiens, HL60/vinc; 96 h continuous exposure; read-out: HL60VINC IC50
measurement.name: IC50 (nM)
Record the value in nM, omitting the unit from your answer.

Query: IC50; subject: COc1cccc2c1C(=O)c1c(O)c3c(c(O)c1C2=O)C[C@@](O)(C(=O)CO)C[C@@H]3O[C@H]1C[C@H](N)[C@H](O)[C@H](C)O1 [Doxorubicin, reference compound] 734

----------
Tested on: MES-SA/DX5
Test: Cytostatic activity, panel: MES-SA/DX5 resistant to doxorubicin
Type: cell-based
Conditions: IC50(resistant cells)/IC50(sensitive cells)
measurement.name: RI MES-SA MES-SA/DX5
Reply with the value as a number alone.

For orientation, consider the following solved cases.
Query: RI MES-SA MES-SA/DX5; subject: N.N.[Cl][Pt][Cl] [Cisplatina] 1.5

Okay, and COc1cccc2c1C(=O)c1c(O)c3c(c(O)c1C2=O)C[C@@](O)(C(=O)CO)C[C@@H]3O[C@H]1C[C@H](N)[C@H](O)[C@H](C)O1 [Doxorubicin, reference compound] ? 181.2

Continuing:
Query: RI MES-SA MES-SA/DX5; subject: CNCCNc1ccc2c(=O)n(CCN(C)C)nc3c2c1C(=O)c1ccccc1-3 [BS-154] 2.9

Okay, and O=C1c2c(O)ccc(O)c2C(=O)c2c(NCCNCCO)ccc(NCCNCCO)c21 [Mitoxantrone, reference compound] ? 2.9

Data credit: patent US9096536B2
